tested on: MS2 coat protein; experiment: apparent KD of MS2 coat protein; designed switch direction (-1 OFF switch, 1 ON switch): -1; higher = weaker reporter binding; details: input ligand: microRNA oligo, concentration not stated
measured_parameter: apparent KD of MS2 coat protein (nM)
Response body: numeric value in nM, unit text excluded.

{"residue_sequence": "AGAUAGUGCUGAGGAUAUCUGAAUAGAAAGAAAAGAGAAGGCGGACAUGAGGAUCACCCAUGUGAGGUCUUGAGACUACAUGGU [Prohibition 37 - Jieux - Exclusion NG 1] (Eterna round: R96, puzzle: Exclusion NG 1)", "study_system": "MS2 coat protein", "uom": "nM", "apparent KD of MS2 coat protein": 42.9}
{"residue_sequence": "GCGCCAUCGUGAGAUGGCGUAUUUACAUGAGGAUCACCCAUGUAGGAUAUCGAUUGCUUUGCAGUCGAGAAGGGCAUGAUAAGU [JL ENG3 3.78] (Eterna round: R96, puzzle: Exclusion NG 3)", "study_system": "MS2 coat protein", "uom": "nM", "apparent KD of MS2 coat protein": 37.3}

// sample AGGUCCUUCUGGAGACAUGAGGAUCACCCAUGUCGGGUCAGCGAGGAUAUCGGUCAAUAAUGUGACGAGAAGGCGCGGACCGAU [Ex NG3 #57] (Eterna round: R96, puzzle: Exclusion NG 3) , its apparent KD of MS2 coat protein was 17.1

Recorded apparent KD of MS2 coat protein (sequence AGAACUCUAGUAGGAUAUGUCGGAUAUGUUGUUGAGGUUCACCCAACGACGUCAAUGACAGAGGGACAGAAGGACUCCUGUUCC [pwkr exNG2 2xFMN 1xF5.9] (Eterna round: R96, puzzle: Exclusion NG 2) ): 506

###

test system: MS2 coat protein; experiment: apparent KD of MS2 coat protein, switch ON state; designed switch direction (-1 OFF switch, 1 ON switch): 1; higher = weaker reporter binding; conditions: FMN input: 0 or 200 uM; Eterna round: R93 (includes R88 designs)
I would appreciate it if you labelled entries criterion met when apparent KD of MS2 coat protein is 0.04 µM or higher, otherwise criterion not met.

Known results for sequences:
{"residue_sequence": "CGAAAGGAGAGAGAGGAUAUCCAAAGGAAAACAUGAGGAUCACCCAUGUAGAAGGUAGGAGAUUGGGAGAAGGCUCAAGAGAGGC [salish99-ss2-150]", "discrete_label": "criterion not met"}
{"residue_sequence": "AACACGCGGGCGCAGGAUAUGUCGCUGGUGACAUGAGGAUCACCCAUGUAUACCAUUGCGGUUGAGCAGAAGGGUGAGAUGCGUG [Beisesanxe]", "discrete_label": "criterion not met"}
{"residue_sequence": "AGGAAACAUGAGGAUCACCCAUGUAAAAAUAUGGGAGGAUAUACGAAGACGAAAGUAAGAGUAGAAGGCCUAAAAG [Garnet 9]", "discrete_label": "criterion not met"}
{"residue_sequence": "UGGAGACAUGAGGAUCACCCAUGUGAGAAGAGGCGAGGAUAUCGAAAGAAAGAAGAGAAACGAGAAGGCGCGAGUA [salish99-SS1-038]", "discrete_label": "criterion not met"}
{"residue_sequence": "AAAGAAAAACUAGAGGAUAUCUAGAUGAUAACAUGAGGAUCACCCAUGUGAAGAAAGGAAUAUAGGGAGAAGGCUAGAAGAAAAA [JL Nando mod 20]", "discrete_label": "criterion not met"}

Ask: Would you say AAACCACAUGAGGAUCACCCAUGUAGAAAUAUGGGAGGAUAUACAAAGACGAAAGUCAAAGUAGAAGGCCUAAAAG [77%, Mat - Mod of Eli, 5] shows apparent KD of MS2 coat protein at minimum 0.04 µM?
Result: criterion not met

Ask: Hi, just wondering whether UAACAACAUGAGGAUCACCCAUGUCAAACAGAUCGAGGAUAUGGGCAGGGUUUUCCCUAACUAGAAGGCGAAGACA [Leinxeerri] shows apparent KD of MS2 coat protein of 0.04 µM or higher.
Result: criterion met

Ask: Is apparent KD of MS2 coat protein at least 0.04 µM? Consider UUUAAUUAUACGAAGGAUAUCGGUAAUUAGACAUGAGGAUCACCCAUGUUAUAUGGUUAAAUAUUCGAGAAGGUCGCGGGUGAAC [JR_SS002_Sub507]
Result: criterion met

Ask: Confirm if apparent KD of MS2 coat protein reported for the sequence AAAUAACAUGAGGAUCACCCAUGUCAAAUAAAUCGAGGAUAUGGGCCCGGGUUCCGGGAGCCAGAAGGCGAAAAGA [Teledimaqu] is 0.04 µM or above.
Result: criterion not met

Ask: Say whether AAUAUACAUGAGGAUCACCCAUGUUUUGGUGUAUGAGGAUAUAAAAAAAAUUAAAUAAAAUUAGAAGGCAUAAAUA [JR_SS001_Sub001] shows apparent KD of MS2 coat protein of 0.04 µM or more.
Result: criterion met
